- ASSAY_COMMENT: Half life in human liver microsomes
- Assay type: ADME, Microsome
QUANTITY_NAME: half-life (h)

- CHEM_SMILES: "O=c1cc(OCc2ccccc2)ccn1-c1ccc2c(cnn2CCN2CCCC2)c1"
  half-life / h: 5.05
- CHEM_SMILES: "O=c1cc(OCc2ccccc2)ccn1-c1ccc2c(cnn2CCN2CC[C@H](O)C2)c1"
  half-life / h: 4.82
- CHEM_SMILES: "O=c1cc(OCc2ccccc2)ccn1-c1ccc2c(cnn2CC2=NCCN2)c1"
  half-life / h: 4.33

---

- ASSAY_COMMENT: Drug level in mouse brain at 30 mg/kg after 6 hrs
- Type: ADME, organism-based
- Set-up: dose 30 mg/kg
- RECORDED_CONDITIONS: read-out: Drug uptake
QUANTITY_NAME: concentration at 6 h (ng/g)
Unit ng/g implied. Number only.

Query string: Entry under review: "O=c1cc(OCc2ccccc2)ccn1-c1ccc2c(cnn2CCN2CCCC2)c1" . Reported concentration at 6 h?
Result string: 1480

---

- SYSTEM: Melanin-concentrating hormone receptor 1 (Homo sapiens, UniProt Q99705)
- Sequence (Q99705 whole entry): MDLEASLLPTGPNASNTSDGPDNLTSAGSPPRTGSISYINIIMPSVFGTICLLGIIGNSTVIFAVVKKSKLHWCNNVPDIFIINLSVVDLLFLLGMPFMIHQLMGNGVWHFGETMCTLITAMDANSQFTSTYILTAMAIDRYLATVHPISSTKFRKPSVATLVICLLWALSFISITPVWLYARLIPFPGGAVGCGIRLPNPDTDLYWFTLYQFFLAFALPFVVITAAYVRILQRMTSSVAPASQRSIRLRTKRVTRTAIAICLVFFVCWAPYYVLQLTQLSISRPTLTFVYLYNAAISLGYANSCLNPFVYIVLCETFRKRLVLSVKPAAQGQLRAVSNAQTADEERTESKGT
pKi: −log10 of the molar value.
QUANTITY_NAME: pKi

Illustrative cases are given below, each with its answer.
- COMPOUND: "CN(C)CCCn1ncc2cc(-n3ccc(OCc4ccccc4)cc3=O)ccc21"
  SYSTEM: "Melanin-concentrating hormone receptor 1 (Homo sapiens, UniProt Q99705)"
  pKi: 7.90
- COMPOUND: "O=c1cc(OCc2ccccc2)ccn1-c1ccc2c(cnn2CCN2CCNCC2)c1"
  SYSTEM: "Melanin-concentrating hormone receptor 1 (Homo sapiens, UniProt Q99705)"
  pKi: 7.61
- COMPOUND: "CO[C@H]1CCN(CCn2ncc3cc(-n4ccc(OCc5ccccc5)cc4=O)ccc32)C1"
  SYSTEM: "Melanin-concentrating hormone receptor 1 (Homo sapiens, UniProt Q99705)"
  pKi: 8.03
- COMPOUND: "O=c1c2cc(-c3ccccc3)oc2ccn1-c1ccc2c(cnn2CCN2CCCC2)c1"
  SYSTEM: "Melanin-concentrating hormone receptor 1 (Homo sapiens, UniProt Q99705)"
  pKi: 8.01

1. O=c1cc(OCc2ccccc2)ccn1-c1ccc2c(cnn2CCN2CC[C@H](O)C2)c1
2. CN1CCN=C1Cn1ncc2cc(-n3ccc(OCc4ccccc4)cc3=O)ccc21
3. COC[C@H]1CCCN1CCn1ncc2cc(-n3ccc(OCc4ccccc4)cc3=O)ccc21
Query string: Highest pKi first, then in falling order down to the smallest. Your task in answering is to list the labels in the requested order.
Result string: 1, 3, 2

1. O=c1c2cc(-c3cccc(Cl)c3)oc2ccn1-c1ccc2c(cnn2CCN2CCCC2)c1
2. CN(C)CCn1ncc2cc(-n3ccc(OCc4ccccc4)cc3=O)ccc21
3. O=c1c2cc(-c3ccc(Cl)cc3Cl)oc2ccn1-c1ccc2c(cnn2CCN2CCCC2)c1
Query string: Highest pKi first, then in falling order down to the smallest. Your task in answering is to list the labels in the requested order.
Result string: 2, 3, 1

P. O=c1cc(OCc2ccccc2)ccn1-c1ccc2c(cnn2CCN2CCOCC2)c1
Q. O=c1c2cc(-c3ccc(Cl)cc3F)oc2ccn1-c1ccc2c(cnn2CCN2CCCC2)c1
Query string: Could you tell me which of P and Q has the lower pKi reading? Your answer should be the label of the entry you select.
Result string: P

I. O=c1cc(OCc2ccccc2)ccn1-c1ccc2c(cnn2CC2C[C@@H](O)CN2)c1 (stereo partly specified)
II. O=c1c2cc(-c3ccccn3)oc2ccn1-c1ccc2c(cnn2CCN2CCCC2)c1
III. O=c1c2cc(-c3ccc(Cl)cc3)oc2ccn1-c1ccc2c(cnn2CCN2CCCC2)c1
Query string: Highest pKi first, then in falling order down to the smallest. Your task in answering is to list the labels in the requested order.
Result string: III, I, II
